Quick list: IC50, FLIPR calcium mobilisation per entry.
Molecular target: human nerve growth factor (beta-NGF) (human, UniProt P01138 122-241)
Sequence (P01138 122-241): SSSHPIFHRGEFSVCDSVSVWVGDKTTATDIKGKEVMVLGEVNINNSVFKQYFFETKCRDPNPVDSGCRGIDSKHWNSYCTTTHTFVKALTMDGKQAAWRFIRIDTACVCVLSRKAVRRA
Experiment: cell-based or functional assay
Return type: number; implicit unit nM.

1083H4 human IgG4 (antibody, V domains shown) VH: QMQLVQSGAEVKKTGSSVKVSCKASGYTFAYHYLHWVRQAPGQGLEWMGGIIPIFGTTNYAQRFQDRVTITADESTSTAYMELSSLRSEDTAVYYCASADYVWGSYRPDWYFDLWGRGTMVTVSS VL: QSVLTQPPSASGTPGQRVTISCSGSSSNIGSNTVNWYQRLPGAAPQLLIYNNDQRPSGIPDRFSGSKSGTSGSLVISGLQSEDEADYYCASWDDSLNGRVFGGGTKLTVL :: 30

Look up IC50, FLIPR calcium mobilisation of 1132H9 human IgG4 (antibody, V domains shown) VH: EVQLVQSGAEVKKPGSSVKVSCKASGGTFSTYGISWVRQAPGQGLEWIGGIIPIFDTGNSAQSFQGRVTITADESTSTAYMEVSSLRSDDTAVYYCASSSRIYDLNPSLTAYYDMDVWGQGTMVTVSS VL: QAVLTQPSSVSTPPGQKVTISCSGSSSDIGNNYVSWYQQLPGTAPKLLIYDNNKRPTGIPDRFSGSKSGTSATLGITGLQTGDEADYYCGTWDSSLSAWVFGGGTKLTVL and report it.
0.35

All figures here come from patent US20080107658A1.
